Each entry below lists one item and its recorded glycan array binding signal (z-score) value.
- system.under.test: GalNAc(b1-3)Gal
- procedure.text: glycan array binding signal (z-score within array); higher = stronger binding
- condition.summary: glycan notation: IUPAC condensed, linker removed
The entries come from a sample that favours the strongest signals as a whole.
Please reply with the value in numeric form only.

[
  {
    "binder": "LFA (Limax flavus) (protein) MSVLFLAASFLLLASFELVAAQGCPRQDPGDWIVIQRRLNADVNFYRGWADYKHGFGDLRCNFWLGNEKIHQLTSHGRYKLRVEFTFNNKSYFAEYSTFKILGEADKYKLQVGGYSGNAGDALTFHNGMAFSTNDRDNDADSIDCAKVYHGAWWYKTCHESNLNGKWGSKKYGEGLNWKAKTTFTATATSSLLKIKALK",
    "glycan array binding signal (z-score)": -0.195
  },
  {
    "binder": "LSECtin (Homo sapiens), Q6UXB4 (protein) MEQESALRELRERVTQGLAEAGRGREDVRTELFRALEAVRLQNNSCEPCPTSWLSFEGSCYFFSVPKTTWAAAQDHCADASAHLVIVGGLDEQGFLTRNTRGRGYWLGLRAVRHLGKVQGYQWVDGVSLSFSHWNQGEPNDAWGRENCVMMLHTGLWNDAPCDSEKDGWICEKKAQLLTPPSALEPRPLQHVVSWGLLTSLAPGADCQRVFSSSSTAAESQKHLAQHSPVQPSAWALGPPCRPHPNSTHADPT",
    "glycan array binding signal (z-score)": -0.287
  },
  {
    "binder": "CLEC9a (Mus musculus), Q8BRU4 (protein) MHAEEIYTSLQWDIPTSEASQKCQSPSKCSGAWCVVTMISCVVCMGLLATSIFLGIKFFQVSSLVLEQQERLIQQDTALVNLTQWQRKYTLEYCQALLQRSLHSGSDCSPCPHNWIQNGKSCYYVFERWEMWNISKKSCLKEGASLFQIDSKEEMEFISSIGKLKGGNKYWVGVFQDGISGSWFWEDGSSPLSDLLPAERQRSAGQICGYLKDSTLISDKCDSWKYFICEKKAFGSCI",
    "glycan array binding signal (z-score)": 0.273
  },
  {
    "binder": "LSL-150 (Laetiporus sulphureus), Q7Z8V1 (protein) MTDIYIPPEGLYFRLLGFASRQVIFARNSPSPDVGLSPVNDQATDQYFSLIYGTGEHAGLYAIKSKATGKVLFSRRPAEPYVGQIDGDGRYPDNWFKIEPGKTYLSKYFRLVQPSTGTALVSRTHLQPYFWNHPQTEVFDDQYFTFLFEDHHHHHH",
    "glycan array binding signal (z-score)": -0.207
  }
]

Req: Given the binder Protectin (Homo sapiens), P13987 (protein) MGIQGGSVLFGLLLVLAVFCHSGHSLQCYNCPNPTADCKTAVNCSSDFDACLITKAGLQVYNKCWKFEHCNFNDVTTRLRENELTYYCCKKDLCNFNEQLENGGTSLSEKTVLLLVTPFLAAAWSLHP , write its reported glycan array binding signal (z-score).
Resp: -1.36

Req: Given the binder DCL-1 (Homo sapiens), Q8IX05 (protein) MLRAALPALLLPLLGLAAAAVADCPSSTWIQFQDSCYIFLQEAIKVESIEDVRNQCTDHGADMISIHNEEENAFILDTLKKQWKGPDDILLGMFYDTDDASFKWFDNSNMTFDKWTDQDDDEDLVDTCAFLHIKTGEWKKGNCEVSSVEGTLCKTAIPYKRKYLSDNHILISALVIASTVILTVLGAIIWFLYKKHSDSRFTTVFSTAPQSPYNEDCVLVVGEENEYPVQFD , write its reported glycan array binding signal (z-score).
Resp: -0.083

Req: Given the binder Strep tagII-anxA1 (Homo sapiens), P04083 (protein) MAMVSEFLKQAWFIENEEQEYVQTVKSSKGGPGSAVSPYPTFNPSSDVAALHKAIMVKGVDEATIIDILTKRNNAQRQQIKAAYLQETGKPLDETLKKALTGHLEEVVLALLKTPAQFDADELRAAMKGLGTDEDTLIEILASRTNKEIRDINRVYREELKRDLAKDITSDTSGDFRNALLSLAKGDRSEDFGVNEDLADSDARALYEAGERRKGTDVNVFNTILTTRSYPQLRRVFQKYTKYSKHDMNKVLDLELKGDIEKCLTAIVKCATSKPAFFAEKLHQAMKGVGTRHKALIRIMVSRSEIDMNDIKAFYQKMYGISLCQAILDETKGDYEKILVALCGGN , write its reported glycan array binding signal (z-score).
Resp: -0.664
